Experiment: chemical genetic growth profiling, strain panel (AID 1159580);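 further: tested at 20 µM; growth read once vehicle control cultures reached saturation at 30 °C; 1 = growth at the plate median or of vehicle wells; lower values mean less growth of the strain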
Settings: S. cerevisiae deletion strains, growth OD, locus YDL074C, strain BRE1, hits give low values
In all, about 5,500 compounds went through this assay and about 2,000 (36%) were called active. About 18% were inconclusive and are not listed. The list shows a part of the results.
Reported normalized growth values follow for various compounds
OBSERVABLE: normalized growth

COMPOUND | QUANTITATIVE READOUT
O=C1NC(O)=NC1(c1ccccc1)c1ccccc1 | 1.02
CC(C)CCCC(C)[C@H]1CCC2C3C(=O)C=C4C[C@@H](O)CC[C@]4(C)C3CC[C@@]21C (stereo partly drawn) | 1.04
COC(=O)c1c(C)c2c(c(C)c1O)OC(=O)c1c(C)c(Cl)c(O)c(Cl)c1O2 | 0.926
COC(=O)c1c(OC)cc2c(c1C)Oc1c(Cl)c(OC(C)=O)c(Cl)c(C)c1C(=O)O2 | 1.05
COC(=O)c1c(OC)cc2c(c1C)Oc1c(Cl)c(O)c(Cl)c(C)c1C(=O)O2 | 0.838
CC(=O)O[C@H]1CC[C@@]2(C)C(=CC(=O)C3C4CCC(C(C)CCCC(C)C)[C@@]4(C)CCC32)C1 (stereo partly drawn) | 1.04
CC(C)(C)NCC(O)c1ccc(O)c(CO)c1 (stereo not drawn) | 1.06
CC(=O)Oc1c(Cl)c(C)c2c(c1Cl)OC(=O)c1c(C)c(Cl)c(OC(C)=O)c(Cl)c1O2 | 0.79
